target: human Cot/Tpl2 kinase (Homo sapiens, UniProt P41279); construct: human Cot/Tpl2 kinase construct encoding residues 30-398; 6His (N); made in house; host or cells: Sf9 insect cells, baculovirus system (BD Biosciences); assay: Tpl2/Cot kinase assay: GST-MEK1 phosphorylation detected by ELISA (DELFIA Eu); type: biochemical; settings: Table 2; Tpl2/Cot kinase, GST-MEK1 substrate, 50 uM ATP
Sequence (P41279 30-398): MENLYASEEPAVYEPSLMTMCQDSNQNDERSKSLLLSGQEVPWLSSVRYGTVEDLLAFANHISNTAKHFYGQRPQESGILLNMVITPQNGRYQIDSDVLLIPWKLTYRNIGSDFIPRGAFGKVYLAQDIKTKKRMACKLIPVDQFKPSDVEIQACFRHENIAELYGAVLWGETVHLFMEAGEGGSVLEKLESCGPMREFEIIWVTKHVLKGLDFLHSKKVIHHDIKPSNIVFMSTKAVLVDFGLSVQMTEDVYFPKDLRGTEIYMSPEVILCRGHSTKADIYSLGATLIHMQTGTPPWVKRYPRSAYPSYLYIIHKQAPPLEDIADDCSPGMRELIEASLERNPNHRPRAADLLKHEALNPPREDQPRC
reportedEndpoint: IC50 (nM)

Look over these answered cases.
CS(=O)(=O)CCn1cc(CNc2cc(Br)c3ncc(C#N)c(Nc4ccc(F)c(Cl)c4)c3c2)nn1 [Example 511] ... 91
N#Cc1cnc2c(Br)cc(NCc3cccnc3)cc2c1Nc1cccc(Cl)c1 [Example 374] ... 36
COCCOCCn1cc(CNc2cc(Br)c3ncc(C#N)c(Nc4ccc(F)c(Cl)c4)c3c2)nn1 [Example 565] ... 100
N#Cc1cnc2c(Br)cc(NCc3cn(Cc4cccnc4)cn3)cc2c1Nc1ccc(F)c(Cl)c1 [Example 533] ... 3.1
Cc1cc(CNc2cc(Cl)c3ncc(C#N)c(Nc4ccc(F)c(Cl)c4)c3c2)n(C)n1 [Example 430] ... 120

(A) N#Cc1cnc2c(CO)cc(NCc3cnc[nH]3)cc2c1Nc1ccc(F)c(Cl)c1 [Example 464]
(B) CC(C)(C)OC(=O)N1CCC(CCn2cc(CNc3cc(Br)c4ncc(C#N)c(Nc5ccc(F)c(Cl)c5)c4c3)nn2)CC1 [Example 503]
(C) Cn1ccnc1CNc1ccc2ncc(C#N)c(NC(C)(C)C)c2c1 [Example 407]
(D) CN(C)CCC(c1cccnc1)n1cc(CNc2cc(Cl)c3ncc(C#N)c(Nc4ccc(F)c(Cl)c4)c3c2)nn1 (centres unmarked) [Example 588]
(E) COc1ccsc1CNc1cc(Cl)c2ncc(C#N)c(Nc3ccc(F)c(Cl)c3)c2c1 [Example 445]
(Q) List by increasing IC50. Enter labels, ranked according to the request.
(A) D, B, A, E, C
(D: 36 nM, B: 130 nM, A: 570 nM, E: 1100 nM, C: 5100 nM)
